- experimental-target: T1, human TREM2 (human, UniProt Q9NZC2 19-174, limits assumed)
- T1 construct: also called triggering receptor expressed on myeloid cells 2
- T1 sequence: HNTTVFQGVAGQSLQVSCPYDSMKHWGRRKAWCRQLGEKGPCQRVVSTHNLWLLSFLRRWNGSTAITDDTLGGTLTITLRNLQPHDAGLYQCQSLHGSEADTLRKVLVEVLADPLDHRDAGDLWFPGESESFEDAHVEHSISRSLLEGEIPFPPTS
- procedure-details: 2nd screen 2 nM
property-label: Binding Signal (fold over 6E7 Parental antibody) (fold)

# binder, reported-result
rows = [
    ("V60 (antibody, V domains shown) VH: EVQLVQSGAEVKKPGESLKISCKGSGYHFTSYWIAWVRQMPGKGLEWMGIIYPGDSDVRYSPSFQGQVTISADKSISTAYLQWSSLKASDTAMYFCARQRTFYYDSSDYSDYWGQGTLVTVSS VL: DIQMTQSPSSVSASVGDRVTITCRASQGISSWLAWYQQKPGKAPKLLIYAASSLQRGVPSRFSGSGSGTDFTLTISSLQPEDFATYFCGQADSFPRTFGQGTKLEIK", 3.35),
    ("V61 (antibody, V domains shown) VH: EVQLVQSGAEVKKPGESLKISCKGSGYSFSSYWIAWVRQMPGKGLEWMGIIYPGDSDTRYNPSFQGQVTISADKSISTAYLQWSSLKASDTAMYFCARGRTFYYDSSDYFDYWGQGTLVTVSS VL: DIQMTQSPSSVSASVGDRVTITCRASQGISSWLAWYQQKPGKAPKLLIYAASSLVNGVPSRFSGSGSGTDFTLTISSLQPEDFATYFCQQADSLPRTFGQGTKLEIK", 3.63),
    ("V76 (antibody, V domains shown) VH: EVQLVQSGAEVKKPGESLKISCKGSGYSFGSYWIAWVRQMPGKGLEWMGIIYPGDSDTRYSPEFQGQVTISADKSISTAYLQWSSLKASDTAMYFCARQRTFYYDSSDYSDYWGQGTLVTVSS VL: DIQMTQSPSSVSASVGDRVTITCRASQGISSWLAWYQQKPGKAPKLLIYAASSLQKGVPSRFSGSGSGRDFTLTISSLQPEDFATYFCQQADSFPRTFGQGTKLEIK", 4.34),
]
